Assay: Effect of temperature (and pH) on the stability of the solution (purity)
Format: physicochemical
Settings: 7% solution in water, pH 5.0, day 21, 25° C.
measuredEndpoint: Purity(%) at day 21 (25° C.)

In [3]: df
Out[3]:
                                   compound  observedresult
0  CCN(CC)CCOC(=O)COC(=O)Cc1c(C)n(C(=O)c2ccc(Cl)cc2)c2ccc(OC)cc12.Cl            93.8
1  CCN(CC)CCOC(=O)Cc1ccc(C(=O)c2ccc(C)cc2)n1C.Cl            92.1
2  CCN(CC)CCOC(=O)COc1nn(Cc2ccccc2)c2ccccc12.Cl            91.8
3  CCN(CC)CCOC(=O)CCc1nc(-c2ccccc2)c(-c2ccccc2)o1.Cl            89.8
4    CCN(CC)CCOC(=O)CCc1ccc2cc(OC)ccc2c1.Cl            94.9
5  CCN(CC)CCOC(=O)C(C)c1ccc2oc(-c3ccc(Cl)cc3)nc2c1.Cl (stereo not drawn)            92.9
6  CCN(CC)CCOC(=O)Cc1c(C)n(C(=O)c2ccc(Cl)cc2)c2ccc(OC)cc12.Cl            94.1
7  CCN(CC)CCOC(=O)CC1=C(C)C(=Cc2ccc([S+](C)[O-])cc2)c2ccc(F)cc21.Cl (stereo not drawn)            93.9
8  CCN(CC)CCOC(=O)C(C)c1ccc(-c2ccccc2)c(F)c1.Cl (racemic)            96.7
